molecular target: T1, human VISTA (human, UniProt Q9H7M9 33-194, limits assumed); test: method not stated (Table 1, column Kd, M)
T1 construct: The ELISA text says only recombinant VISTA; also called recombinant VISTA
pKd: −log10 of the molar value.
quantity_name: pKd

• INX913 | VSTB85 (antibody, V domains shown) VH: QVQLVQSGAEVKKPGASVKVSCKASGYTFTDYAMHWVRQAPGQGLEWMGVIDTYYGNTNYNQKFKGRVTMTRDTSISTAYMELSRLRSDDTAVYYCARGGGDALDYWGQGTTVTVSS VL: DIQMTQSPSSLSASVGDRVTITCKASQSVSNDVVWYQQKPGKAPKLLIYYASNRYIGVPSRFSGSGSGTDFTFTISSLQPEDIATYYCQQGYTSLRTFGQGTKLEIKR = 10.42
• INX902 | VSTB63 (antibody, V domains shown, INX name = the VSTB variable regions with human IgG2 constant regions) VH: QVQLQESGPGLVKPSETLSLTCAVSGFSITSDFAWNWIRQPPGKGLEWIGYITYSGFTNYNPSLESRVTISVDTSKNQFSLKLSSVTAADTAVYYCARQEYGNYVWYFDVWGQGTLVTVSS VL: DIVMTQTPLSLSVTPGQPASISCRASESVEYYGTSLLQWYLQKPGQPPQLLIYAASNVESGVPDRFSGSGSGTDFTLKISRVEAEDVGVYYCQQSRKVPWTFGQGTKLEIK = 9.08
• VSTB59 (antibody, V domains shown) VH: QVQLVQSGAEVKKPGASVKVSCKASGYTFTDYWMHWVRQAPGQGLEWMGAIETSLNYPSYNQKFKGRVTMTRDTSTSTVYMELSSLRSEDTAVYYCARWGIYGNPWFAYWGRGTLVTVSS VL: DIVMTQTPLSLSVTPGQPASISCRASESVDSYVNSFVHWYLQKPGQPPQLLIYRASNLESGVPDRFSGSGSGTDFTLKISRVEAEDVGVYYCQQSNEDPYTFGQGTKLEIKR = 9.97
